Target: T1, human beta-Klotho (human, UniProt Q86Z14 1-1044)
T1 sequence (looked up): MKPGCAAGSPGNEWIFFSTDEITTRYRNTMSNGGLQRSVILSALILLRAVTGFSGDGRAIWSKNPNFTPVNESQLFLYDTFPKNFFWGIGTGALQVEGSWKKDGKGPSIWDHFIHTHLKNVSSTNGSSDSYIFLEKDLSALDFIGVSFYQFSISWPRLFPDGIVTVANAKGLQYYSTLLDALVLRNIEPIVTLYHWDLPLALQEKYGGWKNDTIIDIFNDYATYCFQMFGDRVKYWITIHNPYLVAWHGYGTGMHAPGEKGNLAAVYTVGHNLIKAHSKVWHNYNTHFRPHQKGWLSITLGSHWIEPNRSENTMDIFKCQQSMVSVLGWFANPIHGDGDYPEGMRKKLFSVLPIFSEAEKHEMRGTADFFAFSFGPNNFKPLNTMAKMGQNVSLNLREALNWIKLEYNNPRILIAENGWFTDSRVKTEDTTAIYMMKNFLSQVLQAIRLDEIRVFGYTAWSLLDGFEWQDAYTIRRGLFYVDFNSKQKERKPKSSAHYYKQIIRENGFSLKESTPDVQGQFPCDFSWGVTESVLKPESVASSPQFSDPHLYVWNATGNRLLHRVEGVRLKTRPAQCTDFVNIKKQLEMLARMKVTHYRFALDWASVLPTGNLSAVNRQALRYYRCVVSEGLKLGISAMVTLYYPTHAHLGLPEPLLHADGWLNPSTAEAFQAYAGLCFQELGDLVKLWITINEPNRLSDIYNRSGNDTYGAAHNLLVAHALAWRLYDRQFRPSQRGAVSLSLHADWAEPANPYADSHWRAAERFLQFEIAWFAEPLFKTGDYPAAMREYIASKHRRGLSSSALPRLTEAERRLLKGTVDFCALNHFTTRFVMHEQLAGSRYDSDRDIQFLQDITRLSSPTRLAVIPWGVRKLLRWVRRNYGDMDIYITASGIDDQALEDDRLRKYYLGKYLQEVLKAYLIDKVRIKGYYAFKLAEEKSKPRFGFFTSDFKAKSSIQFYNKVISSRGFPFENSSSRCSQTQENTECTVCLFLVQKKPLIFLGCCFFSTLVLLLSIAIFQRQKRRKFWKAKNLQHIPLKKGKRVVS
Test: cell-based or functional assay
recorded metric: pERK-HEK293-Beta-klotho without HSA [EC50 (nM)] Median Value
Write the value in nM as a bare number.

(S71C, N121Q, L166F, S167G, M168L, 169aT, P171L, S172E, Q173A, G174V, Y179F, A180E, S181K) Ala-FGF21 (ligand) AHPIPDSSPLLQFGGQVRQRYLYTDDAQQTEAHLEIREDGTVGGAADQSPESLLQLKALKPGVIQILGVKTCRFLCQRPDGALYGSLHFDPEACSFRELLLEDGYNVYQSEAHGLPLHLPGQKSPHRDPAPRGPARFLPLPGLPPALPEPPGILAPQPPDVGSSDPFGLVTGLEAVRSPSFEK = 2
(M168S) Met-FGF21 (ligand) MHPIPDSSPLLQFGGQVRQRYLYTDDAQQTEAHLEIREDGTVGGAADQSPESLLQLKALKPGVIQILGVKTSRFLCQRPDGALYGSLHFDPEACSFRELLLEDGYNVYQSEAHGLPLHLPGNKSPHRDPAPRGPARFLPLPGLPPALPEPPGILAPQPPDVGSSDPLSSVGPSQGRSPSYAS = 100

Then this binder:
Entry (N121D) Met-FGF21 (ligand) MHPIPDSSPLLQFGGQVRQRYLYTDDAQQTEAHLEIREDGTVGGAADQSPESLLQLKALKPGVIQILGVKTSRFLCQRPDGALYGSLHFDPEACSFRELLLEDGYNVYQSEAHGLPLHLPGDKSPHRDPAPRGPARFLPLPGLPPALPEPPGILAPQPPDVGSSDPLSMVGPSQGRSPSYAS — recorded pERK-HEK293-Beta-klotho without HSA [EC50 (nM)] Median Value = 1.2

Each recorded value in this set is attributed to patent US20100216715A1.
